Listed next: entries and their corresponding IC50.
# experimental.system: Amine oxidase [flavin-containing] A (Rattus norvegicus, UniProt P21396)
# Sequence (P21396 whole entry): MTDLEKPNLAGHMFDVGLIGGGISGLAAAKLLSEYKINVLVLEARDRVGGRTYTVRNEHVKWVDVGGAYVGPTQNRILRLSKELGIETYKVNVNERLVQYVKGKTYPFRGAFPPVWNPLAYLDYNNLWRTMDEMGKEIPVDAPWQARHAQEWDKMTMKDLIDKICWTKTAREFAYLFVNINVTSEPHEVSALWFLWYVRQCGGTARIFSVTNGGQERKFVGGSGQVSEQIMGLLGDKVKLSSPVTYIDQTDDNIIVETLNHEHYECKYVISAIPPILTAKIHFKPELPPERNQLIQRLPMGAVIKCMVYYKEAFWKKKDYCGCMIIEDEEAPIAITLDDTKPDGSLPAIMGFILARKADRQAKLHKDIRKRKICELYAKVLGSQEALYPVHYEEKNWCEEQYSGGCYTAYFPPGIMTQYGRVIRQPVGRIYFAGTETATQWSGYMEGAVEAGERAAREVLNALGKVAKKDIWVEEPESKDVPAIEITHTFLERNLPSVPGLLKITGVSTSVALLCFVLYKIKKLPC
# experimental.protocol: Inhibition of MAO-A in rat liver mitochondria using p-tyramine as substrate preincubated for 10 mins followed by substrate addition measured after 30 mins in presence of MAO-B inhibitor deprenyl by Amplex red dye-based fluorescence assay
# output: bare number, implied unit µM

compound: COC(=O)C1=C(O)c2ccccc2S(=O)(=O)N1Cc1ccccc1
unit.text: µM
recorded.number: 9.51
//
compound: CN1C(C(=O)N/N=C/c2ccccc2O)=C(O)c2ccccc2S1(=O)=O
unit.text: µM
recorded.number: 11.4

Value of IC50 reported for the compound C/C(=N\NC(=O)C1=C(O)c2ccccc2S(=O)(=O)N1C)c1ccc(Cl)cc1 is 11.2

Value of IC50 reported for the compound C/C(=N\NC(=O)C1=C(O)c2ccccc2S(=O)(=O)N1C)c1ccc(F)cc1 is 10.8

Value of IC50 reported for the compound Cc1ccc(/C=N/NC(=O)C2=C(O)c3ccccc3S(=O)(=O)N2)cc1 is 7.48
